Reference source: patent US20250270304A1

Target: T1, Activin B (Homo sapiens (Human), UniProt P09529 293-407)
T1 construct: also called Mature Activin B; mature Activin B
T1 sequence: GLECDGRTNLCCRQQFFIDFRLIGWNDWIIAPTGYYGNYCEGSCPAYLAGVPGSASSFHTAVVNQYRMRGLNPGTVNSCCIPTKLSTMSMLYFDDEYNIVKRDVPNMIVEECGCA
Assay: ELISA, coated antigen, OD450
readoutLabel: fold-change of OD 450 over negative control (BSA) (fold)

# binder, valueUnits, reading
records = [
    ("AB344 (antibody, IgG1, V domains shown) VH: EVQLVESGGGLVQPGGSLRLSCAASGYTFSNYGMSWVRQAPGKGLELVASISKSGSSIYYPDSVKGRFTISRDNAKNSLYLQMNSLRAEDTAVYYCARLPRLAWNYYYGMDVWGQGTTVTVSS VL: DIVMTQSPLSLPVTPGEPASISCRSSRSLVHGSGDNYLHWYLQKPGQSPQLLIYMASNRAPGVPDRFSGSGSGTDFTLKISRVEAEDVGVYYCVQTLQTPSTFGGGTKVEIK", "fold", 0.75),
    ("AB353 (antibody, IgG1, V domains shown) VH: QVQLQESGPGLVKPSQTLSLTCTVSGLSLSNAKMGVNWIRQPPGKGLEWIGYVSTTGTTDYNPSLKSRVTMSVDTSKNQFSLKVNSVTAADTAVYYCARAGYPDVWGKGTTVTVSS VL: EIVMTQSPATLSLSPGERATLSCRASQNVYTNLAWYQQKPGQAPRLLIYGASARASGIPARFSGSGSGTDFTLTISSLEPEDFAVYYCLQYGSSPPLFGGGTKVEIK", "fold", 0.72),
    ("AB372 (antibody, IgG1, V domains shown) VH: QVTLRESGPALVKPTQTLTLTCTVSGFSLSTSGATVNWIRQPPGKALEWIGYITSSGRTVYNSALKSRLTISKDTSKNQVVLTMTNMDPVDTATYYCTTTKIVGATLRDYWGQGTLVTVSS VL: DIVMTQSPDSLAVSLGERATINCKSSQSVLDTSTNRNYLAWYQQKPGQPPKLLIYGASIRAGGVPDRFSGSGSGTDFTLTISSLQAEDVAVYYCQQSYSHPPTFGGGTKVEIK", "fold", 0.43),
    ("AB357 (antibody, IgG1, V domains shown) VH: EVQLVQSGAEVKKPGASVKVSCKASGYTFPSHYISWVRQAPGQGLEWMGGMNPITGHTIYAQKLQGRGTMTTDPSTSTAYMELRSLRSDDTAVYYCARDMRYDILPGRSYYYGMDVWGQGTTVTVSS VL: ESALTQPASVSGSPGQSITISCTGTDIRGMSVSWYQQHPGKAPKLMIYEVNQRPSGVSNRFSGSKSGNTASLTISGLQAEDEADYYCAAWDASVAGYVFGGGTKLTVL", "fold", 2.44),
    ("AB426 (antibody, IgG1, V domains shown) VH: EVQLVESGGGLVQPGGSLRLSCAASGFTFSDHHMSWVRQAPGKGLELVASISPSGDFTYYPDSVKGRFTISRDNAKNSLYLQMNSLRAEDTAVYYCARDVSPVYYWGQGALVTVSS VL: DIVMTQSPLSLPVTPGEPASISCRSSQSLLHWYLQKPGQSPQLLIYMGSQRAAGVPDRFSGSGSGTDFTLKISRVEAEDVGVYYCQSGVTFGGGTKVEIK", "fold", 0.51),
]
